# experimental protocol: Effective half life in rat
# Assay type: ADME, organism-based
# condition: in vivo, read-out: t1/2eff (converted)
quantity name: half-life

>>> df
                                item_smiles  observed_measurement
0  C[C@H]1CN(c2cc(-c3n[nH]c4ccc(OC5(C)CC5)cc34)ncn2)CCO1              31.2 min
1  CC1(Oc2ccc3[nH]nc(-c4cc(N5CCO[C@@H](CO)C5)ncn4)c3c2)CC1              29.4 min
2  CC(C)Oc1cc2c(-c3cc(N4C[C@@H](C)O[C@@H](C)C4)ncn3)n[nH]c2cc1F              56.4 min
3  CC(C)Oc1ccc2[nH]nc(-c3cc(N4C[C@@H](C)O[C@@H](C)C4)ncn3)c2c1              34.2 min

###

Measured clearance, listed per entry for reference.
# experimental protocol: Plasma clearance in rat
# Format: ADME, organism-based
quantity name: clearance (mL/min/kg)

>>> print(df.to_string())
                                item_smiles  quantity_unit  observed_measurement
0  C[C@H]1CN(c2cc(-c3n[nH]c4ccc(OC5(C)CC5)cc34)ncn2)CCO1      mL/min/kg                    69
1  CC1(Oc2ccc3[nH]nc(-c4cc(N5CCO[C@@H](CO)C5)ncn4)c3c2)CC1      mL/min/kg                    78
2  CC(C)Oc1ccc2[nH]nc(-c3cc(N4C[C@@H](C)O[C@@H](C)C4)ncn3)c2c1      mL/min/kg                    64
3  CC(C)Oc1cc2c(-c3cc(N4C[C@@H](C)O[C@@H](C)C4)ncn3)n[nH]c2cc1F      mL/min/kg                    65

###

# experimental protocol: Bioavailability in rat
# Format: ADME, organism-based
# condition: in vivo
quantity name: bioavailability (%)

>>> print(df.to_string())
                                item_smiles    quantity_name  observed_measurement
0  CC1(Oc2ccc3[nH]nc(-c4cc(N5CCO[C@@H](CO)C5)ncn4)c3c2)CC1  bioavailability                    36
1  CC(C)Oc1ccc2[nH]nc(-c3cc(N4C[C@@H](C)O[C@@H](C)C4)ncn3)c2c1  bioavailability                    25
2  C[C@H]1CN(c2cc(-c3n[nH]c4ccc(OC5(C)CC5)cc34)ncn2)CCO1  bioavailability                    32
3  CC(C)Oc1cc2c(-c3cc(N4C[C@@H](C)O[C@@H](C)C4)ncn3)n[nH]c2cc1F  bioavailability                    20

###

# experimental protocol: Fraction unbound in rat plasma
# Type: ADME, cell-free
Entries and their fraction unbound
quantity name: fraction unbound

                                item_smiles     quantity_name  observed_measurement
0  C[C@H]1CN(c2cc(-c3n[nH]c4ccc(OC5(C)CC5)cc34)ncn2)CCO1  fraction unbound                 0.019
1  CC(C)Oc1ccc2[nH]nc(-c3cc(N4C[C@@H](C)O[C@@H](C)C4)ncn3)c2c1  fraction unbound                 0.017
2  CC(C)Oc1cc2c(-c3cc(N4C[C@@H](C)O[C@@H](C)C4)ncn3)n[nH]c2cc1F  fraction unbound                 0.008
3  CC1(Oc2ccc3[nH]nc(-c4cc(N5CCO[C@@H](CO)C5)ncn4)c3c2)CC1  fraction unbound                 0.051
